meta.source: ChEMBL document CHEMBL3885861

species on record: Rattus norvegicus; experiment: Open TG-GATES - Regimen: Daily Repeat; type: toxicity, organism-based, Sprague-Dawley; parameters: regimen Daily Repeat, gender Male, age 6 weeks; details: in vivo, po, 100 mg/kg, 72 h, tissue Plasma, route gavage, dose level Low, time 3 day
Measured AST of individual entries
Please give a number only; it is taken to be in IU/L.

Here are 4 molecules together with their reported answers.
{"MOLECULE": "CCOc1ccc(NC(=O)CC(C)O)cc1 (stereo not given)", "AST, IU/L": 62.4}
{"MOLECULE": "NC(N)=Nc1nc(CSCCC(N)=NS(N)(=O)=O)cs1", "AST, IU/L": 63.6}
{"MOLECULE": "COC1=CC(=O)C[C@@H](C)[C@]12Oc1c(Cl)c(OC)cc(OC)c1C2=O", "AST, IU/L": 63}
{"MOLECULE": "COc1ccc2[nH]c([S+]([O-])Cc3ncc(C)c(OC)c3C)nc2c1 (stereo not given)", "AST, IU/L": 67.8}

With those in mind, consider the next molecule.
Consider the molecule CCOC(=O)CCC(=O)O[C@H]1[C@H](O[C@@H]2[C@@H](C)[C@H](O[C@H]3C[C@@](C)(OC)[C@@H](O)[C@H](C)O3)[C@@H](C)C(=O)O[C@H](CC)[C@@](C)(O)[C@H](O)[C@@H](C)C(=O)[C@H](C)C[C@@]2(C)O)O[C@H](C)C[C@@H]1N(C)C [ERYTHROMYCIN ETHYLSUCCINATE] and give its measured AST.
77.2
